# assay_method_text: BSK_3C_uPAR: BioMAP Diversity Plus: 3C Assay for Urokinase-type plasminogen activator receptor (uPAR) Biomarker Activity (AID 2282998)
# experimental_setup: BioMAP 3C HUVEC, uPAR biomarker ELISA; actives raise or lower the signal
Activity calls are given as the source filed them. How the source made its calls: active means hit-call score of the fitted dose curve at least 0.9, where 1 is the maximum; inactive means score below 0.9.
Classes used: 1 for active, -1 for inactive

# molecule, qualitative_label
records = [
    ("CC1COC(Cn2cncn2)(c2ccc(Oc3ccc(Cl)cc3)cc2Cl)O1 (stereo not drawn)", 1),
    ("CON(C)C(=O)Nc1ccc(Cl)c(Cl)c1", -1),
    ("COc1nc(C)nc(NC(=O)NS(=O)(=O)c2ccccc2Cl)n1", -1),
    ("O=C(Nc1ccccc1)Nc1ccnc(Cl)c1", -1),
    ("CC(Oc1ccc(Cl)cc1Cl)C(=O)O (stereo not drawn)", -1),
    ("CO/C=C(/C(=O)OC)c1ccccc1Oc1cc(Oc2ccccc2C#N)ncn1", 1),
    ("CNC(=O)ON=CC(C)(C)SC", -1),
    ("Cc1ccc(-c2c(Cl)nc(C#N)n2S(=O)(=O)N(C)C)cc1", 1),
    ("C#CCOS(=O)OC1CCCCC1Oc1ccc(C(C)(C)C)cc1 (stereo not drawn)", 1),
    ("Cc1c(F)c(F)c(COC(=O)C2C(/C=C(\\Cl)C(F)(F)F)C2(C)C)c(F)c1F (stereo not drawn)", -1),
    ("CCCN(CCC)c1c([N+](=O)[O-])cc(S(N)(=O)=O)cc1[N+](=O)[O-]", 1),
    ("C=CCC1=C(C)C(OC(=O)C2C(C=C(C)C)C2(C)C)CC1=O (stereo not drawn)", 1),
    ("O=C(O)c1nc(Cl)ccc1Cl", -1),
    ("CS/C(C)=N/OC(=O)N(C)SN(C)C(=O)O/N=C(\\C)SC", 1),
    ("OC(c1ccc(Cl)cc1)(c1cncnc1)c1ccccc1Cl (stereo not drawn)", 1),
    ("COP(=S)(OC)Oc1nc(Cl)c(Cl)cc1Cl", -1),
    ("CCOc1cc(Oc2ccc(C(F)(F)F)cc2Cl)ccc1[N+](=O)[O-]", -1),
    ("CCCCNC(=O)n1c(NC(=O)OC)nc2ccccc21", 1),
]
